Origin of measurements: ChEMBL document CHEMBL3988442

// Percent Effect lookup, one value per entry
# assay target: Tyrosyl-tRNA synthetase, putative (Trypanosoma cruzi (strain CL Brener)) (UniProt Q4DSP6)
# Sequence (whole entry): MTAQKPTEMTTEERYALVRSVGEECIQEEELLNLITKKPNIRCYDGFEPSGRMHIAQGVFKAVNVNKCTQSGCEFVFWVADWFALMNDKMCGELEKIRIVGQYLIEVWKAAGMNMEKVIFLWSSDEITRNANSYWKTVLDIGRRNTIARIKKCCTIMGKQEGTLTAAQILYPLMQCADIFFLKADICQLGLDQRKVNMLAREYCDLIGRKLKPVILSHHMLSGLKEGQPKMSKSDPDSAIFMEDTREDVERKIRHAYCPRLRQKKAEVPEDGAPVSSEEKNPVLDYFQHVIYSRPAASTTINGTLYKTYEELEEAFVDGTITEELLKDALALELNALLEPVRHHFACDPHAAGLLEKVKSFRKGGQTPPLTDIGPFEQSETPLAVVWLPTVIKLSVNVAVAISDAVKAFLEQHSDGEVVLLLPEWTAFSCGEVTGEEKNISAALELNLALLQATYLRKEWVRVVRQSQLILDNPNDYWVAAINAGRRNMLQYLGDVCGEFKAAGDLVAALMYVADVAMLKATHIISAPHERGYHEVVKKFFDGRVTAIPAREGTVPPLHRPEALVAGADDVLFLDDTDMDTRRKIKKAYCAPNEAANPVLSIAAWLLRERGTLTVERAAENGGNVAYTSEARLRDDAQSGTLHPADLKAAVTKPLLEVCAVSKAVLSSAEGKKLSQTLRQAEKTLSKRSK
# assay explanation: Trypanosoma cruzi tyrosyl tRNA synthetase (TcYRS) _High Tyrosine SOP; note: in the data most compounds retested in dose-response had high values
# Assay type: functional
# Parameters: scale not given: direction of the effect not stated beside the values
# run parameters: 30 µM
Value expressed in %; do not type the unit.

Cc1cc(CC(=O)N2CCCC2c2nc(C(C)C)no2)on1 (stereo unspecified) : 6.32

Bench note, Tyrosyl-tRNA synthetase, putative (Trypanosoma cruzi (strain CL Brener)) (UniProt Q4DSP6): entry Cc1cc(-c2nnc(SCC(=O)O)n2C(C)c2ccccc2)nn1C (stereo unspecified) , its Percent Effect = 9.47

Bench note, Tyrosyl-tRNA synthetase, putative (Trypanosoma cruzi (strain CL Brener)) (UniProt Q4DSP6): entry CCS(=O)(=O)N1Cc2nccn2CC(Cn2nc(C)nc2C)C1 (stereo unspecified) , its Percent Effect = 5.38

Bench note, Tyrosyl-tRNA synthetase, putative (Trypanosoma cruzi (strain CL Brener)) (UniProt Q4DSP6): entry CC(C)c1ccc(CN2CCC3(CCCN(c4nncs4)C3)C2)cc1 (stereo unspecified) , its Percent Effect = 4.3

Bench note, Tyrosyl-tRNA synthetase, putative (Trypanosoma cruzi (strain CL Brener)) (UniProt Q4DSP6): entry CC(C)(C)c1nc(CN2CCCC2Cn2cccn2)no1 (stereo unspecified) , its Percent Effect = 12.6

Bench note, Tyrosyl-tRNA synthetase, putative (Trypanosoma cruzi (strain CL Brener)) (UniProt Q4DSP6): entry OCCn1nccc1C1CCN(CCCOc2ccc(F)cc2)CC1 , its Percent Effect = 9.36

----------
# assay target: Tyrosyl-tRNA synthetase, putative (Trypanosoma cruzi (strain CL Brener)) (UniProt Q4DSP6)
# Sequence (whole entry): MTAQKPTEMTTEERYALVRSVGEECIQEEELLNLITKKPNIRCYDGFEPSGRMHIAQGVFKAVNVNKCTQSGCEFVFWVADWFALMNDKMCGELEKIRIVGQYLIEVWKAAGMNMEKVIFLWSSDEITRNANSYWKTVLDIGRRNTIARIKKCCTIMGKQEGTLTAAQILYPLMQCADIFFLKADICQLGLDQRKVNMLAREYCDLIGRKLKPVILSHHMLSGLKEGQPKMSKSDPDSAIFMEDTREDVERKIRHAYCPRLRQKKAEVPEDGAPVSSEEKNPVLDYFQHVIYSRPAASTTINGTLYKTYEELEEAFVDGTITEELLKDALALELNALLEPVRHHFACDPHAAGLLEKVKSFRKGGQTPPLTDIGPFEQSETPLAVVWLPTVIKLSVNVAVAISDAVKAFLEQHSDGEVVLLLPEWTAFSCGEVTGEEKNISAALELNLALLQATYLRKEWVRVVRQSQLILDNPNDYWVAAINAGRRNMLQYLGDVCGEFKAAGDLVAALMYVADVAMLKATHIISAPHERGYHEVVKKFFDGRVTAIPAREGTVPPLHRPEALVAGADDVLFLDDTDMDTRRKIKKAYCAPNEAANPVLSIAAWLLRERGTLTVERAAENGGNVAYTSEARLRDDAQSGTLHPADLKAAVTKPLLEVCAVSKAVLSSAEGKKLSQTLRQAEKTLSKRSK
# assay explanation: Trypanosoma cruzi tyrosyl tRNA synthetase (TcYRS) SOP
# Assay type: functional
# Design: scale not given: direction of the effect not stated beside the values
# run parameters: 30 µM
// Percent Effect lookup, one value per entry
Be sure to follow the number with its unit.

Worked examples, 4 compounds total:
CC(C)NC(=O)c1ccc2c(c1)nc1n2CCN(C(C)C)C1 : 7.69%
O=C(C1CCC1)N1CCC2(COCc3cnc(N4CCOCC4)nc32)C1 (stereo not drawn) : 12.5%
CS(=O)(=O)NC1CCN(C(=O)NCCc2ccccc2F)CC1 : 25.6%
CCc1noc(CNc2ccc(F)cc2OCC2CC2)n1 : 12.2%

Sure, the documented Percent Effect for O=C(c1cncc(N2CCC3(CCNCC3)CC2)n1)N1CCCC1 is 21%

Sure, the documented Percent Effect for Cc1nc(C)n(CC2CCCN(CCc3ccccn3)C2)n1 (stereo not drawn) is 15.2%

Sure, the documented Percent Effect for O=C(COc1cccc2c1CCC2=O)NCCSc1ccccc1 is 7.79%

Sure, the documented Percent Effect for CCOc1nnc(CN2CCOC(CNc3cccnn3)C2)s1 (stereo not drawn) is 7.32%

Sure, the documented Percent Effect for Cc1cc(CN(C)C(=O)C2CCCN(C(=O)c3ccc(Cl)cc3)C2)no1 (stereo not drawn) is 11.1%

Sure, the documented Percent Effect for CCC(=O)NCC(=O)NCc1cc(Br)ccc1OC(F)F is 18.5%

Sure, the documented Percent Effect for O=C(CCc1c[nH]cn1)N1CC[C@@H](c2ccc3ccccc3c2)[C@H](O)C1 is 13.6%

Sure, the documented Percent Effect for CN(CCC#N)C(=O)CCOc1cccc(F)c1 is 10.4%

----------
# Tested on: Trypanosoma cruzi
# assay explanation: Trypanosoma cruzi phosphomannomutase and mannose-1-phosphate guanylyltransferase assay
# Type: functional
# Parameters: scale not given: direction of the effect not stated beside the values
# run parameters: 10 µM
measured property: Percent Effect (%)
Value expressed in %; do not type the unit.

CCc1ncc2c(n1)CN(Cc1nnc(C)o1)CC2 : 6.07
O=C(c1cccnc1N1CCOCC1)N1CCCC1Cn1cccn1 (stereo not given) : 1.47
COCCO[C@@H]1CCN(C(=O)c2ccc(C)o2)[C@@H]1Cc1cccnc1 : -3.91
O=C1N(c2ccc(F)cc2)Cc2nc(=O)n(Cc3cccc(Cl)c3)n21 : -5.11

API: the following record is the query input.
Sure, the documented Percent Effect for Cc1cc(N2CCC(N(C)C(=O)Nc3ccccc3)CC2)nc(C)n1 is -1.18

----------
# assay target: AMP-activated protein kinase, AMPK (Homo sapiens) (UniProt P54646+O43741+P54619+Q9UGJ0+Q9Y478+Q13131+Q9UGI9)
# assay explanation: AMP-dependent Kinase enzyme assay. An in vitro enzyme assay that detects ADP turnover that is directly proportional to AMPK activity. This uses naive AMPK that is activated during the assay with MK-8722
# Assay type: functional
# Parameters: scale not given: direction of the effect not stated beside the values
# run parameters: 30 µM
// Percent Effect lookup, one value per entry
Value expressed in %; do not type the unit.

Worked examples, 5 compounds total:
CCCOc1ccc(CNC2CCCc3c2cnn3CC)cc1OC (stereo not drawn) : -7.05
CN(C)C1CCN(C(=O)NCc2ccc(Cn3cncn3)cc2)CC1 : -5.16
Cc1cccc(C(=O)NCc2ccc(S(N)(=O)=O)cc2)n1 : 1.31
CN1N=C(C(=O)Nc2cc(F)ccc2OCC2CCCO2)CCC1=O (stereo not drawn) : 12
COc1ccnc(N2CCN(C(=O)c3csc(C4CC4)n3)CC2)n1 : 2.76

Sure, the documented Percent Effect for Cc1cc(-c2nnn(CCC(N)=O)n2)ccc1F is -6.12

Sure, the documented Percent Effect for CC(=O)N1CCC(c2nccnc2Oc2ccccc2)CC1 is 4.17

Sure, the documented Percent Effect for CC(C)NC(=O)COc1nc(C(C)(C)C)no1 is -3.54

Sure, the documented Percent Effect for CCCn1nc(C)c(CNC(=O)C2COc3c(cccc3OC)C2)c1C (stereo not drawn) is -2.55

----------
# assay target: Sialic acid-binding Ig-like lectin 9 (Homo sapiens) (UniProt Q9Y336)
# Sequence (Q9Y336 whole entry): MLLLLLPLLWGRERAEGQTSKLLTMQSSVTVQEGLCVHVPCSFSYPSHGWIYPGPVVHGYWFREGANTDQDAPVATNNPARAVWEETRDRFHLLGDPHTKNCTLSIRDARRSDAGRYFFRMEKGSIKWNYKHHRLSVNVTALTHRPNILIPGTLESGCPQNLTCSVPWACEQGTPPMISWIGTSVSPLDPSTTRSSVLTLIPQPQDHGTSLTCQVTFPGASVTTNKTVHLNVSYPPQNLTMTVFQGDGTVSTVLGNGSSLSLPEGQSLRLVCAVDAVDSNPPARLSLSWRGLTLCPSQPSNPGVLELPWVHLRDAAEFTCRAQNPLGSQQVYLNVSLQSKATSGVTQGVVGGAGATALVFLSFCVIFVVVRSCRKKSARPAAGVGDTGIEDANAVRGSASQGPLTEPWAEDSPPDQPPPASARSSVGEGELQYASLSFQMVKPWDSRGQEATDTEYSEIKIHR
# assay explanation: Hs-Siglec9 ALPHAscreen SOP 20170721
# Design: scale not given: direction of the effect not stated beside the values
# run parameters: 10 µM
measured property: Percent Effect
Be sure to follow the number with its unit.

Worked examples, 2 compounds total:
Cc1ccc(S(=O)(=O)NC2CC2)cc1C : 11.8%
OCCn1nccc1C1CCN(CCCOc2ccc(F)cc2)CC1 : 3.53%

API: the following record is the query input.
Sure, the documented Percent Effect for Cc1nccn1C1CCCN(C(=O)C2=NN(C)C(=O)CC2)C1 (stereo not drawn) is -10.1%
